Reference source: the nanobody polyreactivity screen of Harvey et al. (2022)

Assay: yeast display, Sf9 membrane polyspecificity reagent, FACS + sequencing; frameworks hold sequencing errors
experimental_readout: polyreactivity (PSR sort gate)

Solved cases (5 shown):
1) QVQLVESGGGLVQAGGRLRLTCAASGINFRSYAMGWYRQATGKERELVAGISLSGGSTYYADSVKGRFTISRDNAKNSDYLQMNSLKPEDTAVYYCATRYHYFGALRYGYCGQGTQVTVSS : high polyreactivity
2) QVQLVESGGGLVQAGGSLRLSCAASGSIFFTYAMGWYRQEPGKERELVAAINSSGGSTYYADSVKGRFTISRDNAKNTVYLQMNSLKPEDTAVYYCAAYRYWSTPRYYWGQGTQVTVSS : high polyreactivity
3) QVQLVESGGGLVQAGGSLRLSCSASGRIFPRNAMGWYRQAPGKERHLVAAISQSGTSTYYADSVKGRFTISRDNAQKTVYLQMNSLKREDTAVYYCAASGWDHVIVEYDYWGEGTQVTVSS : low polyreactivity
4) QVQLVESGGGLVQAGGSLRLSCAASGSTFYVYAMGVYRQAPGKERELVAAIRGGGSTNYADSVKGRFTISRDNAKNTVYLQMNSLKPEDTAVYYCAARYRSLRYRPSGYSYNYWGQGTQVTVSS : high polyreactivity
5) QDQLVDSGGGIVQAGGILSLSCAASGRNIIYNAMGWYRQAPGKERELVAAINRSGVSTHYADSVKGRFTISRDNAKNTVYLQMTSLKPEDTAVYYCASTVYGARSYDYWGQGTQVTLSS : low polyreactivity

Consider the additional sequence presented here.
// sample QVQLVESGGGLVQAGGSLRLSCAASGYNFVKNAMGWYRQAPGKERELVAAISTRGGRTYYADSVKGRFTISRDNAKNTVYLQMNSLKPEDTAVYYCAAVHQTSYYDANSYGYWGQGTQVTVSS , its polyreactivity (PSR sort gate) was high polyreactivity

---

Test: yeast display, Sf9 membrane polyspecificity reagent, FACS + sequencing; frameworks hold sequencing errors
experimental_readout: polyreactivity (PSR sort gate)

Solved cases (5 shown):
1) QVQLVESGGGLVQAGGSLRLSSAASGRIFWFNAMGWYRQAPGKEREWVATISSGDSTNYADSVKGRFTISRDNAKNTVYLQMNSLKPDDTAVYYCNARVSHVQVGFDSWGQCTQVTVSS : low polyreactivity
2) QVQLVESGRGLVQAGGSLRLSCAASGRTIKYYAMGWYRQAPGKDRELVAVISWSGGSTYYADSVKGRFTISRDNAKNTVYLQMNSLKPEDTAVYYCNAYVYAYYAGYNYWGQGTQLTVSS : high polyreactivity
3) QVQLVESGGGLVQAGGSLRLSCAASGRTFTRNAMGWYRQAPGKERELVAAISAGGTRTYYADSVKGRFTISRDNAKNTVYLQMNSLIPEDTAVYYCAKPIAPAPNAYPAYDYWGQGTQVTVSS : high polyreactivity
4) QVQLVESGGGLVQAGGSLRLSCAASGRIFYVYAMGWYIKAPGKERELVAAITSSGGRTNYADSVKGRFTISRDNAKNTVYLQMNSLKPEDTAVYYCAAAYPWGDYGVSDYDYWGQGTQVTVSS : low polyreactivity
5) QVQLVESGGGLVQAGGSLRLSCAASGSIFRPYAMGWYRQAPGKERELVAAIRGGGTYYADSVKGRFTISRDNAKNTVYLQMNSLKPEDTAVYYCAQYRYSYYYWGQGTQVTVSS : high polyreactivity

// sample QVQLVESGGGLVQAGGSLRLSCAASGFIFDPYAMGWYRQAPGKERELVARITWSGGRTYYADSVKGRFTISRDNAKNTVYLQMNSLKPEDTAVYYCNADVYGFDYWGQGTQVTVSS , its polyreactivity (PSR sort gate) was high polyreactivity

// sample QVQLVESGGGLVQAGGSLRLSCAASGTIFGKYAMGWYRQAPGKERELDAAISRAGGRTYYADSVKGRFTISRDNAKNTVYLQMNSLIPEDTAVYYCNAGNLHSGGQRWNLYYWGQCTQVTVSS , its polyreactivity (PSR sort gate) was high polyreactivity

// sample QVQLVESGGGLVQAGGSLRLSCAASGSIFRTNAMGWYRQAPGKERELVAAITTSGVTTYYADSVKGRFTISRDNPTNTVYLQMNSLKPEDTAVYYCNARDGRYLPRYDYWRQGTQVTVSS , its polyreactivity (PSR sort gate) was low polyreactivity

// sample QVQLVESGGGLVQAGGSLRLSCAASGSIFGIYTMGWYRQAPGKERELVAAITSVGSTNYADSVKGRFTISRDNAKNTVYLQMNSLKPEDTAGYYCARASAWYVTLVGKYTKYDYWGQGTQVTVSS , its polyreactivity (PSR sort gate) was low polyreactivity

// sample QVKLVESGGGLVQAGGSLRLSCAASGRTFYIYAMGWYRQAPGKERELVAAITYGGGRTFYADSVKGRFTISRDNAKNTVYLQMNSRKPEDTAVYYCAATVRGKRSTYDYWGQGTQVTVSS , its polyreactivity (PSR sort gate) was high polyreactivity

// sample QVQLVESGGGLVQAGGSLRLSCAASGHIFFYYTMGWYRPAPGKERELVAGITIGGSTNYADSVKGRFTISRDNAKNTVYLQMNSLKPEDTAVYYCNVVKYVYIYSYWEYYYWGQGTQVTVSS , its polyreactivity (PSR sort gate) was low polyreactivity
